# target.or.test.system: human S1P3 receptor (Homo sapiens, UniProt Q99500)
# Construct: expressed in transfected cells
# Sequence (Q99500 whole entry): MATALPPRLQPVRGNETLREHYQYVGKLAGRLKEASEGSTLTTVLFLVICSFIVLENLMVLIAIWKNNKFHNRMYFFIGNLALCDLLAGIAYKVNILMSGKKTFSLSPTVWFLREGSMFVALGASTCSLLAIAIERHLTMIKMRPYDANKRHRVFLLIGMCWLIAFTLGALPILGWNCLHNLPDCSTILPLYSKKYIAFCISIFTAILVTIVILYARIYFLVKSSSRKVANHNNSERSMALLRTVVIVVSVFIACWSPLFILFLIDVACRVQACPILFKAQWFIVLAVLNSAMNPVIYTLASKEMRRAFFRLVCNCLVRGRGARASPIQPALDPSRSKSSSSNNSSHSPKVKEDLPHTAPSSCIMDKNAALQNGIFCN
# run.description: FLIPR assay in T24 cells stably expressing the human S1P3 receptor
# Assay type: cell-based
# settings: T-24; percent of activity induced by 5 nM sphingosine-1-phosphate inhibited at 10 μM; table of additional selective S1P3 inhibitors; read-out: S1P3 percent inhibition (in parenthesis)
The reader will find reported inhibition at 10 µM values listed item by item below.
// unit must come after the numeric part

Which inhibition at 10 µM is reported for this compound? CC(C)Oc1ccc2c(C(=O)NCc3ccc(F)c(F)c3)c(C(C)C)n(Cc3ccccc3)c2c1
100%

Next compound: O=C(NCc1ccc(F)c(F)c1)c1c(C2CCCC2)n(Cc2ccccn2)c2ccc(O)cc12
99%
